These data points were gathered from ChEMBL document CHEMBL1129016.

system: MCF7; test: In vitro cytotoxic activity against human breast cancer cells (MCF-7) by using SRB assay after 72 hr of drug exposure; assay type: functional, cell-based; details: MCF7, 72 h
readoutType: IC50 (µg/mL)
Record the value in µg/mL, omitting the unit from your answer.

Inquiry: Give the measured IC50 of CC(=O)OCc1cnc2c(c1)C(=O)c1ccccc1C2=O .
Reply text: 6.7

Inquiry: Give the measured IC50 of O=C(Nc1ccccc1)OCc1cnc2c(c1)C(=O)c1ccccc1C2=O .
Reply text: 4.58

Inquiry: Give the measured IC50 of O=C1c2ccccc2C(=O)c2ncc(CBr)cc21 .
Reply text: 2.49

Inquiry: Give the measured IC50 of Cc1cnc2c(c1)C(=O)c1ccccc1C2=O .
Reply text: 18.3

Inquiry: Give the measured IC50 of O=C1c2ccccc2C(=O)c2ncc(CO)cc21 .
Reply text: 6.66
